The measurements presented in this section are drawn from PubChem BioAssay (NCATS).

test system: Tov112D; assay: Primary qHTS to identify gynecologic anti-cancer compounds using libraries of approved drugs and bioactive compounds (AID 1345084); conditions: Gynecologic cancer cell panel viability, ATPlite luminescence, 48 h; series mostly up to 57.5 µM; also: nearly all actives have a fitted effect of over 55% in size
Records with an inconclusive call do not appear. The source made the active and inactive calls. Calls follow the shape of the dose curve; as a rule, active = well fitted cell-killing curve with a large enough effect; inconclusive = small, poorly fitted or top-dose-only effect, or effect the other way; inactive = flat fitted curve, though single readings scatter.
Result category, one only: t for active, f for inactive

Observe how each entry below is paired with its result.
COc1ccc(C(C)(C)C)cc1CN[C@H]1C2CCN(CC2)[C@H]1C(c1ccccc1)c1ccccc1; f
c1ccc([C@@H]2C[C@H]2NC2CCNCC2)cc1; f
C[C@H]1CN(CC[C@H](O)C2CCCCC2)CC[C@@]1(C)c1cccc(O)c1; f

Test call, this compound: CC(=O)O[C@H]1CN2CCC1CC2 f

What was the test verdict on CC12Cc3cn[nH]c3C=C1CCC1C2CCC2(C)C1CCC2(C)O (stereo not drawn) ? f

Hi, sorry to bother you, what did the test record for CC1CCCC(O)CC(=O)Cc2cc(O)cc(O)c2C(=O)O1 (stereo not drawn) ? f
